Reference source for all entries: a protein production outcome set (Wang et al. 2014)

test: label from the status in PepcDB records

Sequence data	protein production
MFGCPKDLLNGPCGGALDGKCEVNSNLCPWYSLMEKFELLDGAPLLVEHPVVLEMERIFEGEEVEIKRSSFIKNLGRGKAISVEFPIRLFEKGVREFRKVGDLYTIPDNPLGYPHISPTALGTWLKSKGHSVMPHLTAKDRNVIAISSEFRTALEFDFEGILITTGDWSGFILQGKPVFDLDSANMIRLAKLMFSGVLPTGERVEVKERPFIAGTVNPNYPAKLEGKRLARKIIAGADLVISQVVANRKVVREIPKILQEALKYSPHEVPVVVSILYPLKRELEPILRKMGIKTGDDIRAIVEEISSLEFGGINVIVFEETRWEEKLNEVLDLLKELL	failed
MSIYDPNPDQSLARIDALEKELANLKASHNTLDIQNKILKGFISLTNVSAGRMLIKATLQKTMEASIHQTGAQLGSLFLLDGDGRVTESILARGATDQSQKKNIVGQVLDKGLAGWVRENKRTGLINDTTKDYRWLKLPDEPYQALSALGVPIVWGDELLGILTLMHSQVNHFTPACATAMEKTAELIALVLNNARIQTKHKQNETLIQQEDDLLNQAILWFPSIIFILDNQGVLLKCGGKYLAQIGLDPKESIGKSIYYLLPEANELKSLTSHALANNIIESVSVQMERVDHGTWFYDAWFSPILDNHGQVSNVVCMLLPA	failed
